Data origin: ChEMBL document CHEMBL1138047

Biological target: Tubulin (Bos taurus, UniProt Q6B856+Q862L2+Q862F3)
Assay: Inhibition of tubulin polymerization in bovine brain by tubulin assembly assay
quantity: IC50 (nM)

Solved cases below.
> print(dat)
                                smiles.repr                             target.system  quantity  test.value
1  COc1cccc(-c2cc(C(=O)c3cc(OC)c(OC)c(OC)c3)c(N)s2)c1  Tubulin (Bos taurus, UniProt Q6B856+Q862L2+Q862F3)      IC50        1700
2  COc1cc(C(=O)c2cc(-c3ccc(C)cc3)sc2N)cc(OC)c1OC  Tubulin (Bos taurus, UniProt Q6B856+Q862L2+Q862F3)      IC50        1100

1 = COc1cc(C(=O)c2c(N)sc(-c3ccccc3)c2C)cc(OC)c1OC
2 = COc1cc(C(=O)c2cc(-c3ccc(Cl)cc3)sc2N)cc(OC)c1OC
Query block: Smaller IC50 value, 1 vs 2 ? # answer = label of selected item
Result block: 2
(2: 980 nM, 1: 2200 nM)

a = COc1ccc(-c2cc(C(=O)c3cc(OC)c(OC)c(OC)c3)c(N)s2)cc1
b = COc1cc(C(=O)c2cc(-c3ccc(F)cc3)sc2N)cc(OC)c1OC
Query block: I'm curious, which of these has a smaller IC50 number: a or b ? Indicate which entry you chose by stating its label.
Result block: b
(b: 1100 nM, a: 1700 nM)

###

Tested on: Tubulin (Bos taurus)
Test: Inhibition of [3H]colchicine binding to tubulin at 1 uM
quantity: inhibition (%)

> print(dat)
                                smiles.repr  unit.symbol  test.value
1  COc1cc(C(=O)c2cc(-c3ccc(Cl)cc3)sc2N)cc(OC)c1OC            %          68
2  COc1cc(C(=O)c2cc(-c3ccc(C)cc3)sc2N)cc(OC)c1OC            %          71
3  COc1cccc(-c2cc(C(=O)c3cc(OC)c(OC)c(OC)c3)c(N)s2)c1            %          58
4  COc1ccc(-c2cc(C(=O)c3cc(OC)c(OC)c(OC)c3)c(N)s2)cc1            %          64

A = COc1cc(C(=O)c2cc(-c3ccccc3)sc2N)cc(OC)c1OC
B = COc1cc(C(=O)c2c(N)sc(-c3ccccc3)c2C)cc(OC)c1OC
Query block: Of the two listed items, which has the higher inhibition? First: A Second: B Which one? Tell me its label.
Result block: A
